SUBJECT_OF_TEST: human Nav 1.8 (Homo sapiens, UniProt Q9Y5Y9)
Sequence (Q9Y5Y9 whole entry, looked up, the tested form may be a part): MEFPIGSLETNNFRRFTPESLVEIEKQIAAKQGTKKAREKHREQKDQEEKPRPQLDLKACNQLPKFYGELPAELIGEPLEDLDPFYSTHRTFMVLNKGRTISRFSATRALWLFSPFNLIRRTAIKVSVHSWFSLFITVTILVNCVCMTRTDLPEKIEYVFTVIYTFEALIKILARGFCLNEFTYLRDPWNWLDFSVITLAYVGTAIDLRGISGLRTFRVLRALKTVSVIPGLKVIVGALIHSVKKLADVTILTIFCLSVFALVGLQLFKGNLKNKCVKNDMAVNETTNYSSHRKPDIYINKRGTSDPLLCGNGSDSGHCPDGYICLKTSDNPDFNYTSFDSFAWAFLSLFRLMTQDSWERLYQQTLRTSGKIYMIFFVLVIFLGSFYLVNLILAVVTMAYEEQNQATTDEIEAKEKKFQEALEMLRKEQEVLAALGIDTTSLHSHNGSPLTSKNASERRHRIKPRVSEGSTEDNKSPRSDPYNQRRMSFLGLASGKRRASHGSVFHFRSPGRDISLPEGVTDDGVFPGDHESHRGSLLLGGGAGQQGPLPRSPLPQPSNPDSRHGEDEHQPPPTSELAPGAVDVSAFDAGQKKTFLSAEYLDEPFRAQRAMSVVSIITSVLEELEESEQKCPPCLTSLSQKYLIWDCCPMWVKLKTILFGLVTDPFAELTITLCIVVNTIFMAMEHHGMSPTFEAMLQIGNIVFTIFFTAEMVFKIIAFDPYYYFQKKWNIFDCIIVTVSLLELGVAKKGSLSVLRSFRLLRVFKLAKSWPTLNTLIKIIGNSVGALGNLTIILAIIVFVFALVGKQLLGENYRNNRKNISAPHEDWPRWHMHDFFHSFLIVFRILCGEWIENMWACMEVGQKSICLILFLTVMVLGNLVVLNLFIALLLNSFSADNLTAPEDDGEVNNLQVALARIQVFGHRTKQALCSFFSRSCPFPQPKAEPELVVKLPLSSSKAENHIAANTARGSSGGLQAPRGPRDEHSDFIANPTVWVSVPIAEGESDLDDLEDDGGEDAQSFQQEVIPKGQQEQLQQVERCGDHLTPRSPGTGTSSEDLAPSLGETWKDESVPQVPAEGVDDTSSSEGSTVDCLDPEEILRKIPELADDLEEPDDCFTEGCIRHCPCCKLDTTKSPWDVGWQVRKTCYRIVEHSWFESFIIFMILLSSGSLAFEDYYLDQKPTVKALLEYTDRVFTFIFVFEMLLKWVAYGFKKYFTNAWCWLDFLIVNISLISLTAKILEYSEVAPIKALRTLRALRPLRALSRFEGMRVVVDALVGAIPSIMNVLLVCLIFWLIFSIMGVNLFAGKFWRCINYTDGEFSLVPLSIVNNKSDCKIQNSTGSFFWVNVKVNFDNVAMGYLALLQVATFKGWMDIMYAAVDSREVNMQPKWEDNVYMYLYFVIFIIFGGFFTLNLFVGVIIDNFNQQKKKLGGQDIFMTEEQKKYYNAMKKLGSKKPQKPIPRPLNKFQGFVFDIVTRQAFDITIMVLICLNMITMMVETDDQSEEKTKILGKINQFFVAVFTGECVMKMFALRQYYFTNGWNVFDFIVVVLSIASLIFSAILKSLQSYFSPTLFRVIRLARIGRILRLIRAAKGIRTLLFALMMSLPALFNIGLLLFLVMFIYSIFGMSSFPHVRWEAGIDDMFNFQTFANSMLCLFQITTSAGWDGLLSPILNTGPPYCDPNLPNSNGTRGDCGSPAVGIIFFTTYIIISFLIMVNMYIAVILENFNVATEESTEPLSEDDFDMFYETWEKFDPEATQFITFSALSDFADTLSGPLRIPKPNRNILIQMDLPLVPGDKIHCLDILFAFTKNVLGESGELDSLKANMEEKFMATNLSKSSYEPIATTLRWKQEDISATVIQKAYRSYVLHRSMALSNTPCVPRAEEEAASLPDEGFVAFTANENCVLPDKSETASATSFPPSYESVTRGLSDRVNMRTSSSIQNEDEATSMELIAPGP
ASSAY_TEXT: E-VIPR assay detecting and measuring Nav inhibition (HEK cells expressing truncated human Nav 1.8)
Type: cell-based
TEST_PARAMETERS: in the Absence of Human Serum in the E-VIPR Assay
Source text: Sodium ion channels are voltage-dependent proteins that can be activated by inducing membrane voltage changes by applying electric fields. The electrical stimulation instrument and methods of use, referred to as E-VIPR, are described in International Publication No. WO 2002/008748 A3 and C.-J. Huang et al. Characterization of voltage-gated sodium channel blockers by electrical stimulation and fluorescence detection of membrane potential, 24 Nature Biotech. […]
IC50: recorded values

Reference set (3 entries):
[2H]c1cnc(C(N)=O)cc1NC(=O)[C@@H]1O[C@@](C)(C(F)(F)F)[C@@H](C)[C@H]1c1ccc(F)c(F)c1OC; < 10 nM
[2H]c1c(NC(=O)[C@@H]2O[C@@](C)(C(F)(F)F)[C@@H](C)[C@H]2c2ccc(F)c(F)c2OC)ccnc1C(N)=O; < 10 nM
COc1c([C@@H]2[C@@H](C)[C@](C)(C(F)(F)F)O[C@H]2C(=O)Nc2ccnc(C(N)=O)c2)ccc(F)c1F; 10 to 100 nM

Okay, now this compound:
Req: # input compound: `[2H]c1cc([C@H]2[C@H](C(=O)Nc3ccnc(C(N)=O)c3)O[C@@](C)(C(F)(F)F)[C@H]2C)c(OC)c(F)c1F` ; wanted: its IC50
Resp: < 10 nM
